B1: ZNF232 (parent)
chain: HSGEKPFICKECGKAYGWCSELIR

- Variants of: B1
- assay_protocol: protein stability index of a GFP-peptide fusion (GPS, HEK-293T) (PSI 1-6); higher = more stable;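 further: lentivirally expressed fusions sorted by FACS into six bins by GFP to DsRed ratio, PSI derived from sequencing read proportions per bin multiplied by bin number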
- experimental_setup: c terminus: a fixed tail appended
readout_label: protein stability index
Enter a number only.

Recorded results for 5 variants are shown here.
{"columns": ["variant_spec", "readout_label", "result"],
 "data": [
  ["G13S", "protein stability index", 1.88],
  ["G3R", "protein stability index", 1.61],
  ["S2G", "protein stability index", 2.12],
  ["W18A", "protein stability index", 1.85],
  ["E11I", "protein stability index", 2.27]
]}

Please look at this variant and report its protein stability index: `R24C` 4.05

Please look at this variant and report its protein stability index: `K5T` 1.86
